B1: glmS ribozyme (parent)
chain: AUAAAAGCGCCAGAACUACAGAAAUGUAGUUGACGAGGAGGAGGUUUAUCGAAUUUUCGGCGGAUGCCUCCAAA

# Variants of: B1
# PROTOCOL_NOTES: self-cleavage kobs at 2500 uM GlcN6P; higher = faster cleavage; RNA array
# TEST_CONDITIONS: with glucosamine-6-phosphate
Fewer inactive variants are shown than the library holds.
Label YES when self-cleavage kobs at 2500 uM GlcN6P is at or above 0.0005 s⁻¹; anything below gets NO.

q: Can G59C G60U be said to have self-cleavage kobs at 2500 uM GlcN6P at or above 0.0005 s⁻¹?
a: NO

q: Can G37A G40U U55G be said to have self-cleavage kobs at 2500 uM GlcN6P at or above 0.0005 s⁻¹?
a: NO

q: Can A6C G43U be said to have self-cleavage kobs at 2500 uM GlcN6P at or above 0.0005 s⁻¹?
a: NO

q: Can G32A G35U G38C A39C U49G be said to have self-cleavage kobs at 2500 uM GlcN6P at or above 0.0005 s⁻¹?
a: NO

q: Can U65A G66A be said to have self-cleavage kobs at 2500 uM GlcN6P at or above 0.0005 s⁻¹?
a: NO

q: Can C16U C50A be said to have self-cleavage kobs at 2500 uM GlcN6P at or above 0.0005 s⁻¹?
a: NO

q: Can G29U G38C U56G be said to have self-cleavage kobs at 2500 uM GlcN6P at or above 0.0005 s⁻¹?
a: NO

q: Can G32A C34U G60A be said to have self-cleavage kobs at 2500 uM GlcN6P at or above 0.0005 s⁻¹?
a: NO

q: Can U30C C70G be said to have self-cleavage kobs at 2500 uM GlcN6P at or above 0.0005 s⁻¹?
a: NO

q: Can G13U U30G G32C be said to have self-cleavage kobs at 2500 uM GlcN6P at or above 0.0005 s⁻¹?
a: NO

q: Can G51C A53G be said to have self-cleavage kobs at 2500 uM GlcN6P at or above 0.0005 s⁻¹?
a: NO

q: Can C10G U65G be said to have self-cleavage kobs at 2500 uM GlcN6P at or above 0.0005 s⁻¹?
a: NO

q: Can U56G U65G be said to have self-cleavage kobs at 2500 uM GlcN6P at or above 0.0005 s⁻¹?
a: YES

q: Can C8U A39G G60C be said to have self-cleavage kobs at 2500 uM GlcN6P at or above 0.0005 s⁻¹?
a: NO

q: Can U56C U69C C70A be said to have self-cleavage kobs at 2500 uM GlcN6P at or above 0.0005 s⁻¹?
a: NO

q: Can A42G C61A C70A be said to have self-cleavage kobs at 2500 uM GlcN6P at or above 0.0005 s⁻¹?
a: NO

q: Can G21U A64U be said to have self-cleavage kobs at 2500 uM GlcN6P at or above 0.0005 s⁻¹?
a: NO

q: Can A39C C67U be said to have self-cleavage kobs at 2500 uM GlcN6P at or above 0.0005 s⁻¹?
a: NO

q: Can U31G G40U be said to have self-cleavage kobs at 2500 uM GlcN6P at or above 0.0005 s⁻¹?
a: YES

q: Can G13U G37A A53C G60U C67G be said to have self-cleavage kobs at 2500 uM GlcN6P at or above 0.0005 s⁻¹?
a: NO

q: Can A6U U31A G37C U54A be said to have self-cleavage kobs at 2500 uM GlcN6P at or above 0.0005 s⁻¹?
a: NO

q: Can A33C G38A U47G be said to have self-cleavage kobs at 2500 uM GlcN6P at or above 0.0005 s⁻¹?
a: NO

q: Can A53G C67G be said to have self-cleavage kobs at 2500 uM GlcN6P at or above 0.0005 s⁻¹?
a: YES

q: Can G21U U30A be said to have self-cleavage kobs at 2500 uM GlcN6P at or above 0.0005 s⁻¹?
a: NO

q: Can G60U G62U be said to have self-cleavage kobs at 2500 uM GlcN6P at or above 0.0005 s⁻¹?
a: NO

q: Can G7A G13A G37C U46G be said to have self-cleavage kobs at 2500 uM GlcN6P at or above 0.0005 s⁻¹?
a: NO

q: Can C34A U56C be said to have self-cleavage kobs at 2500 uM GlcN6P at or above 0.0005 s⁻¹?
a: NO

q: Can G29U U56G be said to have self-cleavage kobs at 2500 uM GlcN6P at or above 0.0005 s⁻¹?
a: YES

q: Can A12G G37C U57A be said to have self-cleavage kobs at 2500 uM GlcN6P at or above 0.0005 s⁻¹?
a: NO

q: Can C10G A15G C34A G37A be said to have self-cleavage kobs at 2500 uM GlcN6P at or above 0.0005 s⁻¹?
a: NO

q: Can U65A C71A be said to have self-cleavage kobs at 2500 uM GlcN6P at or above 0.0005 s⁻¹?
a: YES

q: Can A36U U47A G66U C70G C71U be said to have self-cleavage kobs at 2500 uM GlcN6P at or above 0.0005 s⁻¹?
a: YES

q: Can U54G C67G C70U C71U be said to have self-cleavage kobs at 2500 uM GlcN6P at or above 0.0005 s⁻¹?
a: NO

q: Can G62U G63U G66C be said to have self-cleavage kobs at 2500 uM GlcN6P at or above 0.0005 s⁻¹?
a: NO

q: Can A33C A52G C67U be said to have self-cleavage kobs at 2500 uM GlcN6P at or above 0.0005 s⁻¹?
a: NO

q: Can U47G U65G be said to have self-cleavage kobs at 2500 uM GlcN6P at or above 0.0005 s⁻¹?
a: YES

q: Can A48G C71A be said to have self-cleavage kobs at 2500 uM GlcN6P at or above 0.0005 s⁻¹?
a: NO

q: Can A53G A64U U69G be said to have self-cleavage kobs at 2500 uM GlcN6P at or above 0.0005 s⁻¹?
a: YES

q: Can A15C C16U be said to have self-cleavage kobs at 2500 uM GlcN6P at or above 0.0005 s⁻¹?
a: YES

q: Can A48U U54A be said to have self-cleavage kobs at 2500 uM GlcN6P at or above 0.0005 s⁻¹?
a: NO

q: Can G43C U56A be said to have self-cleavage kobs at 2500 uM GlcN6P at or above 0.0005 s⁻¹?
a: NO

q: Can A12G A36C G62U be said to have self-cleavage kobs at 2500 uM GlcN6P at or above 0.0005 s⁻¹?
a: NO

q: Can G29C U46C be said to have self-cleavage kobs at 2500 uM GlcN6P at or above 0.0005 s⁻¹?
a: NO

q: Can A14U U54C be said to have self-cleavage kobs at 2500 uM GlcN6P at or above 0.0005 s⁻¹?
a: YES

q: Can G7U G66U C70G be said to have self-cleavage kobs at 2500 uM GlcN6P at or above 0.0005 s⁻¹?
a: NO

q: Can U56G G66C C71U be said to have self-cleavage kobs at 2500 uM GlcN6P at or above 0.0005 s⁻¹?
a: NO

q: Can G44U U54A be said to have self-cleavage kobs at 2500 uM GlcN6P at or above 0.0005 s⁻¹?
a: NO

q: Can U54C be said to have self-cleavage kobs at 2500 uM GlcN6P at or above 0.0005 s⁻¹?
a: YES

q: Can C34A G37U U46G U65G be said to have self-cleavage kobs at 2500 uM GlcN6P at or above 0.0005 s⁻¹?
a: NO

q: Can A39U U47G be said to have self-cleavage kobs at 2500 uM GlcN6P at or above 0.0005 s⁻¹?
a: YES

q: Can A6G U54G C70U be said to have self-cleavage kobs at 2500 uM GlcN6P at or above 0.0005 s⁻¹?
a: NO

q: Can C8A A36U A64U C70U be said to have self-cleavage kobs at 2500 uM GlcN6P at or above 0.0005 s⁻¹?
a: NO

q: Can U46A C61U be said to have self-cleavage kobs at 2500 uM GlcN6P at or above 0.0005 s⁻¹?
a: NO

q: Can A12G A15G be said to have self-cleavage kobs at 2500 uM GlcN6P at or above 0.0005 s⁻¹?
a: NO

q: Can G43A be said to have self-cleavage kobs at 2500 uM GlcN6P at or above 0.0005 s⁻¹?
a: NO

q: Can C16A U46G be said to have self-cleavage kobs at 2500 uM GlcN6P at or above 0.0005 s⁻¹?
a: NO

q: Can C11U A12U C71A be said to have self-cleavage kobs at 2500 uM GlcN6P at or above 0.0005 s⁻¹?
a: NO

q: Can A6G A14C A48G be said to have self-cleavage kobs at 2500 uM GlcN6P at or above 0.0005 s⁻¹?
a: NO

q: Can G13U U47A C50U be said to have self-cleavage kobs at 2500 uM GlcN6P at or above 0.0005 s⁻¹?
a: NO

q: Can G13A A64C be said to have self-cleavage kobs at 2500 uM GlcN6P at or above 0.0005 s⁻¹?
a: NO

q: Can C10U C16U G37U G38A A39G C50G A64G U65C be said to have self-cleavage kobs at 2500 uM GlcN6P at or above 0.0005 s⁻¹?
a: NO

q: Can G7C G37A G63U be said to have self-cleavage kobs at 2500 uM GlcN6P at or above 0.0005 s⁻¹?
a: NO

q: Can C11A G44A C68A be said to have self-cleavage kobs at 2500 uM GlcN6P at or above 0.0005 s⁻¹?
a: NO

q: Can G26U G32U U55G be said to have self-cleavage kobs at 2500 uM GlcN6P at or above 0.0005 s⁻¹?
a: NO

q: Can G37A U47C be said to have self-cleavage kobs at 2500 uM GlcN6P at or above 0.0005 s⁻¹?
a: NO

q: Can U47G A53G be said to have self-cleavage kobs at 2500 uM GlcN6P at or above 0.0005 s⁻¹?
a: YES

q: Can C10A G32C be said to have self-cleavage kobs at 2500 uM GlcN6P at or above 0.0005 s⁻¹?
a: NO

q: Can C16U U56C be said to have self-cleavage kobs at 2500 uM GlcN6P at or above 0.0005 s⁻¹?
a: YES

q: Can U46A A48G C50U be said to have self-cleavage kobs at 2500 uM GlcN6P at or above 0.0005 s⁻¹?
a: NO

q: Can G21U U69G be said to have self-cleavage kobs at 2500 uM GlcN6P at or above 0.0005 s⁻¹?
a: NO

q: Can A15C U57A be said to have self-cleavage kobs at 2500 uM GlcN6P at or above 0.0005 s⁻¹?
a: NO

q: Can G29U A53U be said to have self-cleavage kobs at 2500 uM GlcN6P at or above 0.0005 s⁻¹?
a: YES

q: Can A12G A39U U49G U55G be said to have self-cleavage kobs at 2500 uM GlcN6P at or above 0.0005 s⁻¹?
a: NO

q: Can G7U G13U A42U G44C be said to have self-cleavage kobs at 2500 uM GlcN6P at or above 0.0005 s⁻¹?
a: NO

q: Can C11G U56G G59U be said to have self-cleavage kobs at 2500 uM GlcN6P at or above 0.0005 s⁻¹?
a: NO

q: Can A12C G29A be said to have self-cleavage kobs at 2500 uM GlcN6P at or above 0.0005 s⁻¹?
a: YES

q: Can G38U G51C be said to have self-cleavage kobs at 2500 uM GlcN6P at or above 0.0005 s⁻¹?
a: NO

q: Can A33U C67U be said to have self-cleavage kobs at 2500 uM GlcN6P at or above 0.0005 s⁻¹?
a: NO

q: Can C8G A39C be said to have self-cleavage kobs at 2500 uM GlcN6P at or above 0.0005 s⁻¹?
a: NO

q: Can C8A C11G be said to have self-cleavage kobs at 2500 uM GlcN6P at or above 0.0005 s⁻¹?
a: NO

q: Can A39G U47A be said to have self-cleavage kobs at 2500 uM GlcN6P at or above 0.0005 s⁻¹?
a: YES
